TARGET_DESC: UniProt P14902
Sequence (P14902 whole entry, the tested form may be a part): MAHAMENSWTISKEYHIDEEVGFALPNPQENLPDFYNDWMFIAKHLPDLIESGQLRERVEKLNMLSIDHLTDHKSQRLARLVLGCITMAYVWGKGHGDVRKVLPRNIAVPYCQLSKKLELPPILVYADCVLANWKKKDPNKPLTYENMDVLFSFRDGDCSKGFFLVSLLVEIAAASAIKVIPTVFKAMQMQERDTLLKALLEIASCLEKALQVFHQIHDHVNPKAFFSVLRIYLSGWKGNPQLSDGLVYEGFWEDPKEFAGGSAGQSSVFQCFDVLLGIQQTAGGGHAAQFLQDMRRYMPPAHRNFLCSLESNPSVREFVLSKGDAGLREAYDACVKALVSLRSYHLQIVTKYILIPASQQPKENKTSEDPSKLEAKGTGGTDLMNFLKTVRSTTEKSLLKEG
EXPERIMENT: Inhibition of recombinant full-length N-terminal His-tagged human IDO1 (1 to 403 residues) expressed in Escherichia coli BL21(DE3) cells
MEASUREMENT_LABEL: IC50 (nM)

molecule=N#Cc1ccc(NC(=O)NCc2cnc3scc(C#Cc4ccsc4)n23)cc1 recorded_value=73.9
molecule="OC(c1ccccc1)c1cnc2scc(-c3ccc(Br)cc3)n12 (centres undefined)" recorded_value=1090
molecule=O=C(NCc1cnc2scc(C#CC3CC3)n12)Nc1cccc(Cl)c1 recorded_value=42
molecule=N#Cc1ccc(NC(=O)NCc2cnc3scc(C#CC4CCCC4)n23)cc1 recorded_value=418

Ref: ChEMBL document CHEMBL4376890
